# System: MCF7 breast
# Protocol Summary: NCI tumour cell line growth inhibition, 48 h
Measured Parameter: TGI

| Compound | Result |
| --- | --- |
| CCSCC1CC(O)(c2ccccc2)CC(c2ccc(F)cc2)O1 (stereo unspecified) | 8.98 µM |
| CC(Nc1ncc2c(n1)-c1ccccc1OC2)C(=O)O (stereo unspecified) | > 100 µM |
| CC(=O)Nc1ccc(NCC(=O)Nn2cnc3ccc(S(=O)(=O)Nc4ccc(NC(C)=O)cc4)cc3c2=O)cc1 | > 100 µM |
| COc1cc2oc(=O)ccc2cc1C(=O)CC(C)C | > 100 µM |
| COC[C@@H](N=C1NC(=O)/C(=C/c2ccc3ncccc3c2)S1)c1ccccc1 | > 25 µM |
| CCOC(=O)c1cc(C(=O)c2cc(OC)c(OC)c(OC)c2)n2ncccc12 | > 100 µM |
| O=C(NC1(c2cc3ccccc3s2)CCCCC1)C1CCC1 | > 100 µM |
| COc1ccc(/C=C(/C#N)C(N)=O)c(OC)c1 | > 100 µM |
| O=S(=O)(NCCCNc1nccc(-c2c(-c3ccc(O)cc3)nc3sccn23)n1)c1ccc(F)cc1 | 5.91 µM |
| COc1ccc(C2NC(=S)Nc3c2c(=O)oc2c3ccc3ccccc32)cc1 (stereo unspecified) | > 100 µM |
| CC(O)(Cc1ccccc1C#N)Cc1ccccc1C#N | > 100 µM |
| COc1cc(C2Cc3ncccc3-c3[nH]c(=O)c4cccnc4c32)cc(OC)c1OC (stereo unspecified) | > 100 µM |
| COc1ccc(N=N/C(=N/NC(=O)c2ccc(C)cc2)c2ccc(N(CCC#N)CCC#N)cc2OC)cc1 | > 100 µM |
| Cc1ccn2c(=O)cc(CN3CCOCC3)nc2c1 | > 100 µM |
| N=C1OC(CN2CCN(c3ccccc3)CC2)CN1C(=S)Nc1ccccc1 (stereo unspecified) | > 100 µM |
| Cc1ccc(S(=O)(=O)NC(=O)NCCc2cnc[nH]2)cc1 | > 100 µM |
| CCOc1cc(C2SCC(=O)N2c2ccc(Oc3ccc(Cl)cc3)c(Cl)c2)ccc1O (stereo unspecified) | 56.4 µM |
| O=c1cc(N=Nc2ccc(Br)cc2)[nH]c(=S)[nH]1 | 42.7 µM |
| O=C1CSCc2sccc21 | > 100 µM |
| C=CCN(c1cc(OCc2ccccc2)c2[nH]cc(C)c2c1)S(C)(=O)=O | > 100 µM |
| NNC(=S)N/N=C(\C(=O)Nc1cccc(O)c1)C1C(=O)NC(=S)NC1=O | > 100 µM |

* * *

Overview of reported TGI across a group of compounds:
# Test system: NCI-H226 lung
# Protocol Summary: NCI tumour cell line growth inhibition, 48 h

| Compound | TGI |
| --- | --- |
| O=C(Cc1ccc(/C=C/C(=O)c2ncc[nH]2)cc1)Nc1ccc(F)cc1 | > 33.3 µM |
| N#CC(C(=O)c1cccnc1Cl)c1nc2cc(C(F)(F)F)ccc2s1 (configuration not stated) | > 100 µM |
| O=C1CSCc2sccc21 | > 100 µM |
| N#CC12Cc3cc4c(cc3-c3cccc(c31)CCN2C(=O)c1ccccc1)OCO4 (configuration not stated) | > 100 µM |
| CC(C)(Br)C(=O)N1CCN(C(c2ccccc2)c2ccccc2)CC1 | > 100 µM |
| CC1(C)O[C@@H]([C@H](O)CO)[C@H](O)[C@@H](C2SCCCS2)O1 | > 100 µM |
| C[C@@H](c1ccccc1)n1c(N)c(-c2ccccn2)c2ccc([N+](=O)[O-])cc2c1=O | > 100 µM |
| COC(=O)C(C(=O)C(=O)Nc1c(C)cccc1C)c1cnc2ccccc2n1 (configuration not stated) | > 100 µM |
| CC1=CC(=O)C2=C(C)CCC3C(C)C(=O)OC3C12 (configuration not stated) | > 100 µM |
| CN(CCN1C(=O)c2cc([N+](=O)[O-])cc3cc([N+](=O)[O-])cc(c23)C1=O)CCN1C(=O)c2cc([N+](=O)[O-])cc3cc([N+](=O)[O-])cc(c23)C1=O | 9.69 µM |
| Cc1cc(O)c(=O)cc2c1C[C@H]1CC(C)(C)/C=C/C[C@]3(C)Oc4cc(=O)c(O)cc(C)c4C[C@H]3C[C@H](O)[C@@]1(C)O2 | 13.6 µM |
| COC[C@@H](N=C1NC(=O)/C(=C/c2ccc3ncccc3c2)S1)c1ccccc1 | > 25 µM |
| N#Cc1cccc2c1Nc1ccccc1S2 | > 100 µM |
| O=C(N/C(=C\c1ccc(Cl)cc1)c1nc2ccccc2[nH]1)c1ccccc1 | 44.9 µM |
| O=C(CC(Cl)=C(Cl)Cl)Nc1ccccc1 | > 100 µM |
| COC(=O)C1CCC(=O)N1CN(C(C)=O)c1ccccc1Cl (configuration not stated) | > 100 µM |
| CC(ON(C(c1ccccc1)C(C)C)C(C)(C)C)c1ccccc1 (configuration not stated) | 36.6 µM |
| NS(=O)(=O)c1ccc(Nc2cc(-c3cccc(O)c3)[nH]n2)cc1 | > 25 µM |
| Cc1ccc(NC(Nc2ccc(C)cc2C)=C(C(Cl)=C(Cl)Cl)[N+](=O)[O-])c(C)c1 | 32.3 µM |
| Cn1c(=O)[nH]c2nncnc2c1=O | 28.7 µM |
| COc1ccc(C2CC(c3cccc(Nc4ccnc5cc(Cl)ccc45)c3)=NN2C=O)cc1 (configuration not stated) | > 100 µM |
| COc1ccc(NC(=O)C(=O)c2c(O)c3ccc(O)cc3oc2=O)c([N+](=O)[O-])c1 | > 100 µM |

* * *

# Tested on: OVCAR-8 ovarian
# Protocol Summary: NCI tumour cell line growth inhibition, 48 h

| Molecule | TGI |
| --- | --- |
| O=C(N/C(=C\c1ccc(Cl)cc1)c1nc2ccccc2[nH]1)c1ccccc1 | 52.8 µM |
| CC(=O)OC1CC[C@@]2(C)C(=CC[C@@H]3[C@@H]2CC[C@]2(C)Nc4nn(S(C)(=O)=O)cc4C[C@@H]32)C1 (some centres undefined) | > 100 µM |
| CCN1C(=S)N(c2ccccc2)C2NC(=S)N(/N=C/C=C/c3ccccc3OC)C21 (centres undefined) | > 100 µM |
| N#Cc1c(-c2ccc(Cl)c(Cl)c2)c(-c2ccc(Cl)c(Cl)c2)nn(CC(=O)O)c1=O | > 100 µM |
| COC(=O)C1CCC(=O)N1CN(C(C)=O)c1ccccc1Cl (centres undefined) | > 100 µM |
| OCc1cn(C(c2ccccc2)(c2ccccc2)c2ccccc2)cn1 | > 100 µM |
| CCSCC1CC(O)(c2ccccc2)CC(c2ccc(F)cc2)O1 (centres undefined) | 8.79 µM |
| CCCCCCCCCCCCCCCCCc1cccc(OCOCCOC)c1C(=O)O | 31.7 µM |
| CC(C)C1=CC(=O)C(C)(C2C(O)CC3(C)C4CC=C5C(CCC(OC6OC(CO)C(O)C(O)C6OC6OC(C)C(O)C(O)C6O)C5(C)C)C4(C)C(=O)CC23C)O1 (centres undefined) | > 100 µM |

* * *

# Test system: OVCAR-8 ovarian
# Protocol Summary: NCI tumour cell line growth inhibition, 48 h
Overview of reported TGI across a group of compounds:

| Compound | TGI |
| --- | --- |
| O=c1[nH]c2ccccc2c2ccccc12 | > 100 µM |
| O=c1cc(N=Nc2ccc(Br)cc2)[nH]c(=S)[nH]1 | 51.3 µM |
| CCN(CC)C(=O)Cc1c(C(=O)N(CC)CC)c(=O)nc2sccn12 | > 100 µM |
| COC(=O)/C(C#N)=C(\Nc1ccccc1)N1CCOCC1 | > 100 µM |
| O=C(CC(Cl)=C(Cl)Cl)Nc1ccccc1 | > 100 µM |
| CC1=Nc2ccccc2S/C1=C(/C)NNS(=O)(=O)c1ccc(C)cc1 | > 100 µM |
| O=C(Cc1ccc(/C=C/C(=O)c2ncc[nH]2)cc1)Nc1ccc(F)cc1 | > 33.3 µM |
| Cc1cc(O)c(=O)cc2c1C[C@H]1CC(C)(C)/C=C/C[C@]3(C)Oc4cc(=O)c(O)cc(C)c4C[C@H]3C[C@H](O)[C@@]1(C)O2 | 11.6 µM |
| O=C(c1ccccc1)c1c(CC(O)c2ccccn2)n(C(=O)c2ccccc2)c2ccccc12 (stereo unspecified) | 95.8 µM |
| N#Cc1nc(CCN2C(=O)c3ccccc3C2=O)oc1N | > 100 µM |
| Cc1coc2c1C[C@@]1(C)[C@H](CCC[C@@H]1C)[C@H]2O | > 100 µM |
| CC(C)OC(=O)c1ccc(CCC2=CC(=O)C=CC2=O)cc1 | 18.1 µM |
| C/C(=N\NC(=S)N1CCCCC1)c1ccccn1 | 2.42 µM |
| CC(C)(C)c1ccc(S(=O)(=O)Oc2ccc3c4c(c(=O)oc3c2)CCCCC4)cc1 | > 100 µM |
| CC1(C)O[C@@H]([C@H](O)CO)[C@H](O)[C@@H](C2SCCCS2)O1 | > 100 µM |
| Cc1ccn2c(=O)cc(CN3CCOCC3)nc2c1 | > 100 µM |
| Cc1nc(-n2nc(-c3ccccc3)cc2-c2ccccc2)sc1C(=O)/C=C/c1ccc(/C=C/C(=O)c2sc(-n3nc(-c4ccccc4)cc3-c3ccccc3)nc2C)cc1 | > 100 µM |
| CN1C(=O)CCC1(O)C1C=CC=CC1 (stereo unspecified) | > 100 µM |
| CCOC(=O)/C(=C/N1CCN(C(=O)c2ccco2)C1=S)C(=O)c1ccccc1 | 35.2 µM |
| Cc1ccc(NC(Nc2ccc(C)cc2C)=C(C(Cl)=C(Cl)Cl)[N+](=O)[O-])c(C)c1 | 33.9 µM |
| N=C1OC(CN2CCN(c3ccccc3)CC2)CN1C(=S)Nc1ccccc1 (stereo unspecified) | > 100 µM |

Where do the numbers come from? From PubChem BioAssay (NCI).
